target: CDK6/CyclinD3 (Homo sapiens, UniProt Q00534); construct: purchased Carna 04-107; assay: Assay for inhibition of CDK6/CyclinD3 (Caliper microfluidic kinase assay); type: biochemical; details: CDK6/CyclinD3
Sequence (Q00534 whole entry): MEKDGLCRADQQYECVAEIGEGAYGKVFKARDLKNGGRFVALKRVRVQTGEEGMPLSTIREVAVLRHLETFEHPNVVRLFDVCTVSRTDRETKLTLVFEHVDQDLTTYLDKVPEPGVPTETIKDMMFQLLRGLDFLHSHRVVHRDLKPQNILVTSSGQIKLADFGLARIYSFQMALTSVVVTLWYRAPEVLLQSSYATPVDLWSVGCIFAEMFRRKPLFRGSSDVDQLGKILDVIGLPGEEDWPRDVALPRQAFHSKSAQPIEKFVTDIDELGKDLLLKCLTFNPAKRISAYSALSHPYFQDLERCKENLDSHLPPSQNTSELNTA
Sequence (P30281 whole entry partner): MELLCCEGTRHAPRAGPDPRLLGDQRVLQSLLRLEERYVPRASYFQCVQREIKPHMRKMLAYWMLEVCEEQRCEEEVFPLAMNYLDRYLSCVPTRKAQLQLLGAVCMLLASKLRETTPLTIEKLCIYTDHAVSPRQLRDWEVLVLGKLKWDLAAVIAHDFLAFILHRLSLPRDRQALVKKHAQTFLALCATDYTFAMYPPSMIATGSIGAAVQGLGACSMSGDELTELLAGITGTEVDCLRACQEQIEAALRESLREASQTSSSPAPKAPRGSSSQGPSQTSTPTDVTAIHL
measure: IC50

These recorded examples may help you get a feel for the data.
COc1nc(-c2ccnc(Nc3ccc(N4CCC(C)(N)CC4=O)cn3)n2)cc2c1ncn2C(C)C (stereo not drawn) : < 10 nM
COc1nc(-c2nc(Nc3ccc(N4CCCCC4=O)cn3)ncc2F)cc2c1nc(C)n2C(C)C : 10 to 100 nM
COc1nc(-c2ccnc(Nc3ccc(N4CCC(N5CC(F)(F)C5)CC4=O)cn3)n2)cc2c1ncn2C(C)C (stereo not drawn) : 10 to 100 nM
COc1nc(-c2nc(Nc3ccc(CN4CCN5CCCC5C4)cn3)ncc2F)cc2c1nc(C)n2C(C)C (stereo not drawn) : 10 to 100 nM
COc1nc(-c2ccnc(Nc3ccc(N4CCC(N5CCOCC5)CC4=O)cn3)n2)cc2c1ncn2C(C)C (stereo not drawn) : 10 to 100 nM

Now look at this entry.
Task item: Would you kindly share the measured IC50 for COc1nc(-c2ccnc(Nc3ccc(CN4CCC(C#N)CC4)cn3)n2)cc2c1ncn2C(C)C ?
Reply: 10 to 100 nM

###

Entries and their IC50
biological target: CDK2/CyclinE1 (Homo sapiens, UniProt P24941); construct: purchased SignalChem C29-18G; test: Assay for inhibition of CDK2/CyclinE1 (Caliper microfluidic kinase assay); assay type: biochemical; details: CDK2/CyclinE1, 100 μM ATP; read-out: CDK2 IC50

These recorded examples may help you get a feel for the data.
CC1(N)CCN(c2ccc(Nc3nccc(-c4cc(F)c5c(c4)C4(CCCC4)CO5)n3)nc2)C(=O)C1 (stereo not shown) [compound 260] : 0.01 to 0.1 µM
CC(C)n1cnc2c1CN(c1ccnc(Nc3ccc(N4CCCNC4=O)cn3)n1)CC2 [compound 242] : 0.1 to 1 µM
COc1nc(-c2nc(Nc3ccc(N4CCN(C5CCNCC5)CC4=O)cn3)ncc2F)cc2c1nc(C)n2C(C)C [compound 139] : > 1 µM

Now look at this entry.
Task item: Would you kindly share the measured IC50 for CC(C)c1cnn2ccc(-c3ccnc(Nc4ccc(N5CCNCC5=O)cc4O)n3)cc12 [compound 188] ?
Reply: 0.01 to 0.1 µM

###

Entries and their IC50
tested on: phosphorylation of Retinoblastoma Protein (pRb Ser807/811 or Ser780) in T47D cells; test: Inhibition of phosphorylation of retinoblastoma protein (pRb) in T47D cell (ELISA); assay type: cell-based, human; conditions: Homo sapiens, T47D, read-out: Phospho T47D Ser807 IC50, pRb Ser807 phosphorylation, T47D cells

These recorded examples may help you get a feel for the data.
CCN1CCN(c2ccc(Nc3ncc(F)c(-c4cc5c(ncn5C(C)C)c(OC)n4)n3)nc2)C(=O)C1 : < 100 nM
CC(C)c1cnn2ccc(-c3ccnc(Nc4ccc(N5CCCC(N)C5=O)cc4)n3)cc12 (stereo not shown) : < 100 nM
COc1nc(-c2nc(Nc3ccc(N4CCC(N(C)C)CC4)cn3)ncc2F)cc2c1ncn2C(C)C : < 100 nM
COc1nc(-c2ccnc(Nc3ccc(N4CCC(C)(N)CC4=O)cn3)n2)cc2c1ncn2C(C)C (stereo not shown) : < 100 nM
CC(C)c1cnn2ccc(-c3nc(Nc4ccc(N5CCN(CCO)CCC5=O)cn4)ncc3F)cc12 [Synthetic Example 52] : < 100 nM
CC(C)c1cnn2ccc(-c3ccnc(Nc4ccc(C(=O)N5CCC(NC6CC6)C5)cc4)n3)cc12 (stereo not shown) : < 100 nM

Task item: Would you kindly share the measured IC50 for CCN1CCN(Cc2ccc(Nc3ncc(F)c(-c4cc(C)n5ncc(C(C)C)c5c4)n3)nc2)CC1 ?
Reply: > 1000 nM

Task item: Would you kindly share the measured IC50 for CC(C)n1cnc2c(F)nc(-c3ccnc(Nc4ccc(N5CCOCC5=O)cn4)n3)cc21 [Synthetic Example 61] ?
Reply: < 100 nM

Task item: Would you kindly share the measured IC50 for COc1nc(-c2ccnc(Nc3ccc(N4CCN(CCF)CC4=O)cn3)n2)cc2c1ncn2C(C)C ?
Reply: < 100 nM

Task item: Would you kindly share the measured IC50 for COc1nc(-c2nc(Nc3ccc(N4CCC(N(C)C)CC4)cn3)ncc2F)cc2c1nc(C)n2C(C)C ?
Reply: 100 to 500 nM

Task item: Would you kindly share the measured IC50 for COc1nc(-c2ccnc(Nc3ccc(N4CCNCC4=O)nc3)n2)cc2c1ncn2C(C)C ?
Reply: 100 to 500 nM

Task item: Would you kindly share the measured IC50 for CC(C)c1cnn2ccc(-c3nc(Nc4ccc(S(N)(=O)=O)cc4)ncc3F)cc12 ?
Reply: 100 to 500 nM

Task item: Would you kindly share the measured IC50 for CCN1CCN(c2ccc(Nc3nccc(N4CCc5ncn(C(C)C)c5C4)n3)nc2)C(=O)C1 ?
Reply: < 100 nM

Task item: Would you kindly share the measured IC50 for COc1nc(-c2nc(Nc3ccc(N4CCNCCC4=O)cn3)ncc2F)cc2c1nc(C)n2C(C)C ?
Reply: 100 to 500 nM

Task item: Would you kindly share the measured IC50 for COc1nc(-c2nc(Nc3ccc(N4CCN(C5COC5)CC4)cn3)ncc2F)cc2c1ncn2C(C)C ?
Reply: 100 to 500 nM

Task item: Would you kindly share the measured IC50 for CCN1CCC(COc2cc(Nc3ncc(F)c(-c4ccn5ncc(C(C)C)c5c4)n3)ccn2)CC1 ?
Reply: 500 to 1000 nM

###

Entries and their IC50
biological target: CDK4/CyclinD1 (Homo sapiens, UniProt P11802); construct: purchased Thermofisher PR8064A; experiment: Assay for inhibition of CDK4/CyclinD1 (Caliper microfluidic kinase assay); assay type: biochemical; conditions: CDK4/CyclinD1, 200 μM ATP
Sequence (P11802 whole entry): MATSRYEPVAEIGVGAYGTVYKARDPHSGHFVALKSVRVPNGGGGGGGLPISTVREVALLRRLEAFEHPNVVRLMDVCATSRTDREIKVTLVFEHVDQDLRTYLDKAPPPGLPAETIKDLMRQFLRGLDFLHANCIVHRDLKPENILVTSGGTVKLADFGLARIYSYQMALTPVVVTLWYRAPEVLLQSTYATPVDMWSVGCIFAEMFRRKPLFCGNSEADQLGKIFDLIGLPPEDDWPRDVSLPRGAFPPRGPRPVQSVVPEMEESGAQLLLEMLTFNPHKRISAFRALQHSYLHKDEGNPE
Sequence (P24385 whole entry partner): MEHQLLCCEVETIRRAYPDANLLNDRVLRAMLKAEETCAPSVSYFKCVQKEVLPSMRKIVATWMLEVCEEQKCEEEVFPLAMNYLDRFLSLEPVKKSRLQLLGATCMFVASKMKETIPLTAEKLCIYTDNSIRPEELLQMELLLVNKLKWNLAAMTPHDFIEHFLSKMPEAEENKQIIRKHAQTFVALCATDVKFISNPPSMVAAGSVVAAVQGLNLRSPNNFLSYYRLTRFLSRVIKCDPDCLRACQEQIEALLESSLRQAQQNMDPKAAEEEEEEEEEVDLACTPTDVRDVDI

These recorded examples may help you get a feel for the data.
Cc1nc2c(F)nc(-c3ccnc(Nc4ccc(N5CCC(N(C)C)CC5=O)cc4)n3)cc2n1C(C)C (stereo not drawn) : < 10 nM
Cc1nn2ccc(-c3ccnc(Nc4ccc(N5CCCC(N)C5=O)cc4)n3)cc2c1C(C)C (stereo not drawn) : < 10 nM
CC(C)c1cnn2ccc(-c3ccnc(Nc4ccc(N5CCN(C6CNC6)CC5=O)cn4)n3)cc12 [Synthetic Example 40] : < 10 nM

Task item: Would you kindly share the measured IC50 for CC(C)c1cnn2ccc(-c3nc(Nc4ccc(CN5CCN6CCCC6C5)cn4)ncc3F)cc12 (stereo not drawn) ?
Reply: 10 to 100 nM

Task item: Would you kindly share the measured IC50 for COc1nc(-c2nc(Nc3ccc(N4CCN(C5CNC5)CC4=O)cn3)ncc2F)cc2c1nc(C)n2C(C)C [Synthetic Example 138] ?
Reply: < 10 nM

Task item: Would you kindly share the measured IC50 for CN(C)C1CCCN(c2ccc(Nc3nccc(-c4cc(F)c5c(c4)C(C)(C)CO5)n3)cc2)C1=O (stereo not drawn) ?
Reply: < 10 nM

Task item: Would you kindly share the measured IC50 for CC(C)c1cnn2ccc(-c3ccnc(Nc4ccc(N5CCNCC5=O)c(F)c4)n3)cc12 ?
Reply: < 10 nM

Task item: Would you kindly share the measured IC50 for CCNC1CCN(c2ccc(Nc3nccc(-c4ccn5ncc(C(C)C)c5c4)n3)nc2)C(=O)C1 (stereo not drawn) ?
Reply: < 10 nM

Task item: Would you kindly share the measured IC50 for CCN1CCC(Cn2ccc(Nc3nccc(-c4cc5c(ncn5C(C)C)c(OC)n4)n3)n2)CC1 ?
Reply: 10 to 100 nM

Task item: Would you kindly share the measured IC50 for CCN1CCN(Cc2ccc(Nc3ncc(F)c(-c4cc5c(C(C)C)n(C)nc5cn4)n3)nc2)CC1 [Synthetic Example 58] ?
Reply: 100 to 1000 nM

Task item: Would you kindly share the measured IC50 for COc1nc(-c2ccnc(Nc3ccc(N4CCN(CCF)CC4=O)cn3)n2)cc2c1ncn2C(C)C ?
Reply: < 10 nM

Task item: Would you kindly share the measured IC50 for CC(C)c1cnn2ccc(-c3ccnc(Nc4ccc(N5CCC(N(C)C)CC5=O)cc4)n3)cc12 (stereo not drawn) ?
Reply: < 10 nM

Task item: Would you kindly share the measured IC50 for CC(C)c1cnn2ccc(-c3ccnc(Nc4ccc(N5CCC(N6CCC6)CC5=O)cn4)n3)cc12 (stereo not drawn) ?
Reply: < 10 nM

Task item: Would you kindly share the measured IC50 for CC(C)(C)c1cnn2ccc(-c3ccnc(Nc4ccc(N5CCCC(N)C5=O)cc4F)n3)cc12 (stereo not drawn) ?
Reply: < 10 nM

###

target: CDK4/CyclinD1 (Homo sapiens); construct: purchased Thermofisher PR8064A; test: Assay for inhibition of CDK4/CyclinD1 (Caliper microfluidic kinase assay); format: biochemical; settings: CDK4/CyclinD1, 200 μM ATP
Entries and their IC50

Cc1cnc(Nc2ccc(N3CCC(N(C)C)CC3=O)cn2)nc1-c1cc2c(ncn2C(C)C)c(F)n1 (centres unmarked) [compound 279] : < 10 nM

Task item: Would you kindly share the measured IC50 for CC1(C)COc2c(F)cc(-c3ccnc(Nc4ccc(N5CCCC(N)C5=O)cc4)n3)cc21 (centres unmarked) [compound 263] ?
Reply: < 10 nM

Task item: Would you kindly share the measured IC50 for CC(C)c1cnn2ccc(-c3ccnc(Nc4ccc(N5CCCC(N)C5=O)cc4F)n3)cc12 (centres unmarked) [compound 223] ?
Reply: < 10 nM

Task item: Would you kindly share the measured IC50 for CC(C)c1cnn2ccc(-c3nc(Nc4ccc(N5CCOCC5=O)cc4F)ncc3F)cc12 [compound 7] ?
Reply: < 10 nM

Task item: Would you kindly share the measured IC50 for CC(C)c1cnn2ccc(-c3ccnc(Nc4ccc(N5CCC(C)(N)CC5=O)cc4Cl)n3)cc12 (centres unmarked) [compound 212] ?
Reply: < 10 nM

Task item: Would you kindly share the measured IC50 for CC(C)c1cnn2ccc(-c3ccnc(Nc4ccc(N5CCNCC5=O)cc4F)n3)cc12 [compound 224] ?
Reply: < 10 nM

Task item: Would you kindly share the measured IC50 for Cc1nc2c(F)nc(-c3ccnc(Nc4ccc(N5CCN(C(C)C)CC5)cn4)n3)cc2n1C(C)C [compound 269] ?
Reply: < 10 nM

Task item: Would you kindly share the measured IC50 for CC(C)n1cnc2c(F)nc(-c3ccnc(Nc4ccc(N5CCN(C)CC5)cn4)n3)cc21 [compound 290] ?
Reply: < 10 nM
